Provide the reported % reduction of adult worms growth at day 49 after per os application of 400 mg/kg, TWR (%) of each item.
Test system: Schistosoma mansoni adult worms (49-day-old)
Assay: Effect on adult schistosomes (49-day-old) in infected mice
Assay type: in vivo
Settings: single 400 mg/kg per os, 49-day-old adults; total worm reduction rate
Give bare numbers, in %.

// solved cases for % reduction of adult worms growth at day 49 after per os application of 400 mg/kg, TWR (%) follow
Molecule: CC(C)(O)C[C@H]1CC[C@]2(CC1)OOC1(O2)C2CC3CC(C2)CC1C3 (stereo partly drawn) [OZ205]
Experimental system: Schistosoma mansoni adult worms (49-day-old)
Units label: %
Reading: 0

Molecule: c1ccc(C2CCC3(CC2)OOC2(O3)C3CCCC2CCC3)cc1 (stereo not drawn) [OZ67]
Experimental system: Schistosoma mansoni adult worms (49-day-old)
Units label: %
Reading: 38

Molecule: CCS(=O)(=O)N1CCC2(CC1)OOC1(O2)C2CC3CC(C2)CC1C3 (stereo not drawn) [OZ79]
Experimental system: Schistosoma mansoni adult worms (49-day-old)
Units label: %
Reading: 4

Molecule: Clc1ccc(C2(c3ccc(Cl)cc3)OOC3(O2)C2CC4CC(C2)CC3C4)cc1 (stereo not drawn) [OZ43]
Experimental system: Schistosoma mansoni adult worms (49-day-old)
Units label: %
Reading: 1

Molecule: NC[C@H]1CC[C@]2(CC1)OOC1(O2)C2CC3CC(C2)CC1C3 (stereo partly drawn) [OZ209]
Experimental system: Schistosoma mansoni adult worms (49-day-old)
Units label: %
Reading: 16

Take each entry in turn and give its % reduction of adult worms growth at day 49 after per os application of 400 mg/kg, TWR (%).
1. O=C(OC[C@H]1CC[C@]2(CC1)OOC1(O2)C2CC3CC(C2)CC1C3)N1CCN(c2ccccc2)CC1 (stereo partly drawn) [OZ148]
2. NC(=O)OC1CCC2(CC1)OOC1(O2)C2CC3CC(C2)CC1C3 (stereo not drawn) [OZ107]

1. 25
2. 26
